# Tested target: Thyroid hormone receptor beta (Homo sapiens) (UniProt P10828)
# Sequence (P10828 whole entry, looked up): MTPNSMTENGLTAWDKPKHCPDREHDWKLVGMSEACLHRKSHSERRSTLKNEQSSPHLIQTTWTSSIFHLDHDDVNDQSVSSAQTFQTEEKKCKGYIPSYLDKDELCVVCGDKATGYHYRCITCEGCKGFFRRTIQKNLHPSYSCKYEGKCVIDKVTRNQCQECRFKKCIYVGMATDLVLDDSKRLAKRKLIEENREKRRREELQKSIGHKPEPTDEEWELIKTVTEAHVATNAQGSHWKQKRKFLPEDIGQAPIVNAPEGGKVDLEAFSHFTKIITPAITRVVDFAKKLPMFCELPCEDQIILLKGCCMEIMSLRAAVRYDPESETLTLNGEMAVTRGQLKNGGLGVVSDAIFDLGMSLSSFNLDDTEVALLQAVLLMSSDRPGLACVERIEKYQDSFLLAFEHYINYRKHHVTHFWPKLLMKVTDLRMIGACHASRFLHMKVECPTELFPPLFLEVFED
# Assay info: Concentration Response Confirmation Assay for Inhibitors of the Interaction of Thyroid Hormone Receptor and Steroid Receptor Coregulator 2, Fluorescein Fluoroprobe
# Test conditions: TRbeta LBD / fluorescein-SRC2 peptide, fluorescence polarization, 5 h; series mostly up to 92.2 µM
Inconclusive results are not listed. Calls of active or inactive are those of the source. Calls follow the shape of the dose curve; as a rule, active = well fitted inhibition curve with a large enough effect; inconclusive = small, poorly fitted or top-dose-only effect, or effect the other way; inactive = flat fitted curve, though single readings scatter.
Classes used: active, inactive

>  <Compound>
O=C(Nc1nc2ccc(Cl)cc2s1)c1ccc(N2CCCCC2)c([N+](=O)[O-])c1

>  <Classification>
inactive

$$$$
>  <Compound>
O=c1[nH]c(Nc2ccccc2)cc2ccccc12

>  <Classification>
active

$$$$
>  <Compound>
CCN(C(=O)C1CCCN(c2ncnc3onc(-c4ccc(F)cc4)c23)C1)c1ccccc1 (stereo not given)

>  <Classification>
inactive

$$$$
>  <Compound>
C=CCSc1nnc2n(-c3ccccc3OC)c(=O)c3c4c(sc3n12)CCC4

>  <Classification>
inactive

$$$$
>  <Compound>
CN1CCc2ccc3c4c2[C@]1(C)Cc1cccc(c1-4)OCO3

>  <Classification>
active

$$$$
>  <Compound>
COc1cc(NC(C)CCCN)c2ncccc2c1 (stereo not given)

>  <Classification>
inactive

$$$$
>  <Compound>
CC1=NN(Cc2ccccc2)C(=O)C1

>  <Classification>
inactive

$$$$
>  <Compound>
CCOc1cc(C(c2c(C)[nH][nH]c2=O)c2c(C)[nH][nH]c2=O)ccc1OC(=O)c1cccc([N+](=O)[O-])c1

>  <Classification>
active

$$$$
>  <Compound>
CS(=O)(=O)c1ccc(C(=O)OCC(=O)NC(=O)C2CCCCC2)cc1[N+](=O)[O-]

>  <Classification>
active

$$$$
>  <Compound>
Cc1nnc(SCC(=O)Nc2ccc(N(C)C)cc2)[nH]c1=O

>  <Classification>
inactive

$$$$
>  <Compound>
CCCCOc1ccc(C(=O)CCN2CCCCC2)cc1

>  <Classification>
active

$$$$
>  <Compound>
CCCc1cc(=O)[nH]c(=S)[nH]1

>  <Classification>
inactive

$$$$
>  <Compound>
Cn1c(=O)[nH]c2nnc(-c3ccc(Cl)c(Cl)c3)nc2c1=O

>  <Classification>
inactive

$$$$
>  <Compound>
Cc1ccc2c(CC(=O)Nc3c(C(=O)c4ccc(F)cc4)oc4ccccc34)coc2c1C

>  <Classification>
inactive

$$$$
>  <Compound>
Oc1ccc2ccccc2c1/C=N/c1nc2c(s1)CCCC2

>  <Classification>
active

$$$$
>  <Compound>
CCOc1ccc(C2=Cc3cc(OC)c(OC)cc3C(=C(Cl)Cl)O2)cc1

>  <Classification>
inactive

$$$$
>  <Compound>
CCOc1cc(N2CCOCC2)c(OCC)cc1NC(C)C(=O)N1CCN(CC)CC1 (stereo not given)

>  <Classification>
inactive

$$$$
>  <Compound>
Nc1cc(-c2ccncc2)c[nH]c1=O

>  <Classification>
inactive

$$$$
>  <Compound>
Cc1cc(C)cc(OCC(=O)NCCc2nc3ccccc3[nH]2)c1

>  <Classification>
inactive

$$$$
>  <Compound>
Cc1ccc(OC(=S)Nc2ccc(O)cc2)cc1

>  <Classification>
inactive

$$$$
